- Tested on: rats subjected to adrenalectomy (granuloma around implanted cotton wads)
- Assay text: granulom test (cotton-pellet test) on rats subjected to adrenalectomy: granuloma growth, thymus weight, body weight increase
- Assay type: in vivo, rat (Sprague-Dawley)
- Details: Table 3; adrenalectomized young male Sprague-Dawley rats, topical in implanted cotton wads, day 8
Attribute: Dose required to obtain 50% inhibition of Granuloma growth

>>> result("CCCCCC1O[C@@H]2C[C@H]3[C@@H]4CCC5=CC(=O)C=C[C@]5(C)[C@H]4[C@@H](O)C[C@]3(C)[C@]2(C(=O)CO)O1 (single isomer, unassigned) [13 B]")
"5 γ/animal"
>>> result("CC1O[C@@H]2C[C@H]3[C@@H]4CCC5=CC(=O)C=C[C@]5(C)[C@@]4(F)[C@@H](O)C[C@]3(C)[C@]2(C(=O)COC(=O)c2cc3ccccc3o2)O1 (stereo partly drawn) [16 B]")
"3 γ/animal"

Moving on to another compound below.
Query :: Any idea what Dose required to obtain 50% inhibition of Granuloma growth was measured for CCCC1O[C@@H]2C[C@H]3[C@@H]4C[C@H](F)C5=CC(=O)C=C[C@]5(C)[C@@]4(F)[C@@H](O)C[C@]3(C)[C@]2(C(=O)CO)O1 (single isomer, unassigned) [8 B] ?
Result :: 4 γ/animal

----------
- Test system: rats subjected to adrenalectomy (granuloma around implanted cotton wads)
- Assay text: granulom test (cotton-pellet test) on rats subjected to adrenalectomy: granuloma growth, thymus weight, body weight increase
- Type: in vivo, rat (Sprague-Dawley)
- Details: rat, in vivo, 11520 min
- From the text: In the following this active stereoisomeric component will always be designated B. As regards the steroids referred to in connection with the present invention the stereoisomeric mixture as well as the individual stereoisomeric components A and B have been investigated with regard to antiinflammatory activity in granulom test on rats subjected to adrenalectomy. The experimental procedure used corresponds largely to that described by G. Engelhardt: Arzneimittel-Forschung, 13, p. 588, 1963. […]
Reported Dose required to obtain 25% inhibition of Body weight Increase values are given for each entry in this list.

>>> result("CCC1OC2CC3C4CCC5=CC(=O)C=CC5(C)C4(F)C(O)CC3(C)C2(C(=O)CO)O1 (mixture of isomers)")
"140 γ/animal"
>>> result("CCC1O[C@@H]2C[C@H]3[C@@H]4CCC5=CC(=O)C=C[C@]5(C)[C@@]4(F)[C@@H](O)C[C@]3(C)[C@]2(C(=O)CO)O1 (single isomer, unassigned) [2 B]")
"100 γ/animal"
>>> result("CC1O[C@@H]2C[C@H]3[C@@H]4CCC5=CC(=O)C=C[C@]5(C)[C@@]4(F)[C@@H](O)C[C@]3(C)[C@]2(C(=O)CO)O1 (single isomer, unassigned) [1 A]")
"60 γ/animal"

Query :: What value of Dose required to obtain 25% inhibition of Body weight Increase has been recorded for this entry: CCCCC1O[C@@H]2C[C@H]3[C@@H]4CCC5=CC(=O)C=C[C@]5(C)[C@@]4(F)[C@@H](O)C[C@]3(C)[C@]2(C(=O)CO)O1 (single isomer, unassigned) [4 A]
Result :: 170 γ/animal

Query :: Tell me the measured Dose required to obtain 25% inhibition of Body weight Increase of CCCC1O[C@@H]2C[C@H]3[C@@H]4CCC5=CC(=O)C=C[C@]5(C)[C@@]4(F)[C@@H](O)C[C@]3(C)[C@]2(C(=O)CO)O1 (single isomer, unassigned) [3 A] , please.
Result :: > 30 γ/animal

Query :: Give its Dose required to obtain 25% inhibition of Body weight Increase value. Item: CCCC1O[C@@H]2C[C@H]3[C@@H]4C[C@H](F)C5=CC(=O)C=C[C@]5(C)[C@@]4(F)[C@@H](O)C[C@]3(C)[C@]2(C(=O)CO)O1 (single isomer, unassigned) [8 B]
Result :: 50 γ/animal

----------
- Tested on: rats subjected to adrenalectomy (granuloma around implanted cotton wads)
- Assay text: granulom test (cotton-pellet test) on rats subjected to adrenalectomy: granuloma growth, thymus weight, body weight increase
- Assay type: in vivo, rat (Sprague-Dawley)
- Details: rat, in vivo, 11520 min
- From the text: In the following this active stereoisomeric component will always be designated B. As regards the steroids referred to in connection with the present invention the stereoisomeric mixture as well as the individual stereoisomeric components A and B have been investigated with regard to antiinflammatory activity in granulom test on rats subjected to adrenalectomy. The experimental procedure used corresponds largely to that described by G. Engelhardt: Arzneimittel-Forschung, 13, p. 588, 1963. […]
Recorded metric: Dose required to obtain 50% inhibition of Thymus weight

>>> result("CCCC1OC2CC3C4CCC5=CC(=O)C=CC5(C)C4(F)C(O)CC3(C)C2(C(=O)COC(=O)c2cc3ccccc3o2)O1 (mixture of isomers)")
"25 γ/animal"

Query :: Report Dose required to obtain 50% inhibition of Thymus weight for CCCCCC1O[C@@H]2C[C@H]3[C@@H]4CCC5=CC(=O)C=C[C@]5(C)[C@H]4[C@@H](O)C[C@]3(C)[C@]2(C(=O)CO)O1 (stereo partly drawn) [13 A+B] please.
Result :: 175 γ/animal

Query :: Fill blank: measured Dose required to obtain 50% inhibition of Thymus weight of the compound CC1O[C@@H]2C[C@H]3[C@@H]4CCC5=CC(=O)C=C[C@]5(C)[C@@]4(F)[C@@H](O)C[C@]3(C)[C@]2(C(=O)CO)O1 (single isomer, unassigned) [1 B] is ____.
Result :: 50 γ/animal

Query :: // returns reported Dose required to obtain 50% inhibition of Thymus weight for input CCCCC(=O)OCC(=O)[C@@]12OC(C)O[C@@H]1C[C@H]1[C@@H]3CCC4=CC(=O)C=C[C@]4(C)[C@@]3(F)[C@@H](O)C[C@@]12C (single isomer, unassigned) [18 A]
Result :: 70 γ/animal

----------
Measured Dose required to obtain 50% inhibition of Thymus weight, listed per entry.
- Test system: rats subjected to adrenalectomy (granuloma around implanted cotton wads)
- Assay text: granulom test (cotton-pellet test) on rats subjected to adrenalectomy: granuloma growth, thymus weight, body weight increase
- Type: in vivo, rat (Sprague-Dawley)
- Details: rat, in vivo, 11520 min

>>> result("CCCC1O[C@@H]2C[C@H]3[C@@H]4CCC5=CC(=O)C=C[C@]5(C)[C@H]4[C@@H](O)C[C@]3(C)[C@]2(C(=O)COC(C)=O)O1 (single isomer, unassigned) [27 B]")
"60 γ/animal"
>>> result("CCCC1OC2CC3C4CC(F)C5=CC(=O)C=CC5(C)C4(F)C(O)CC3(C)C2(C(=O)COC(=O)c2cc3ccccc3o2)O1 (mixture of isomers)")
"10 γ/animal"
>>> result("CC1O[C@@H]2C[C@H]3[C@@H]4CCC5=CC(=O)C=C[C@]5(C)[C@@]4(F)[C@@H](O)C[C@]3(C)[C@]2(C(=O)COC(=O)c2cccnc2)O1 (single isomer, unassigned) [17 B]")
"13 γ/animal"

Query :: Sample CC1(C)O[C@@H]2C[C@H]3[C@@H]4C[C@H](F)C5=CC(=O)C=C[C@]5(C)[C@@]4(F)[C@@H](O)C[C@]3(C)[C@]2(C(=O)CO)O1 [Fluocinolone acetonide, reference compound] — what was its Dose required to obtain 50% inhibition of Thymus weight?
Result :: 14 γ/animal

----------
- System: rats subjected to adrenalectomy (granuloma around implanted cotton wads)
- Assay text: granulom test (cotton-pellet test) on rats subjected to adrenalectomy: granuloma growth, thymus weight, body weight increase
- Type: in vivo, rat (Sprague-Dawley)
- Details: rat, in vivo
The reader will find reported ED25 body weight increase inhibition values listed item by item below.
Form entry: value (µg/animal) — number only.

>>> measured_number("CCCC1O[C@@H]2C[C@H]3[C@@H]4CCC5=CC(=O)C=C[C@]5(C)[C@H]4[C@@H](O)C[C@]3(C)[C@]2(C(=O)COC(C)=O)O1 (single isomer, unassigned) [27 A]")
100
>>> measured_number("CCCC1O[C@@H]2C[C@H]3[C@@H]4CCC5=CC(=O)C=C[C@]5(C)[C@@]4(F)[C@@H](O)C[C@]3(C)[C@]2(C(=O)COC(=O)c2cc3ccccc3o2)O1 (single isomer, unassigned) [20 A]")
50

Would you kindly look at the next entry?
Query :: // returns reported ED25 body weight increase inhibition for input CC1O[C@@H]2C[C@H]3[C@@H]4C[C@H](F)C5=CC(=O)C=C[C@]5(C)[C@@]4(F)[C@@H](O)C[C@]3(C)[C@]2(C(=O)COC(=O)c2cc3ccccc3o2)O1 (stereo partly drawn) [23 B]
Result :: 3

----------
- System: rats subjected to adrenalectomy (granuloma around implanted cotton wads)
- Assay text: granulom test (cotton-pellet test) on rats subjected to adrenalectomy: granuloma growth, thymus weight, body weight increase
- Format: in vivo, rat (Sprague-Dawley)
- Details: rat, in vivo, 11520 min
Recorded metric: Dose required to obtain 50% inhibition of Thymus weight

Query :: Bench note: what Dose required to obtain 50% inhibition of Thymus weight did CCCC1O[C@@H]2C[C@H]3[C@@H]4CCC5=CC(=O)C=C[C@]5(C)[C@H]4[C@@H](O)C[C@]3(C)[C@]2(C(=O)COC(C)=O)O1 (single isomer, unassigned) [27 A] show?
Result :: 100 γ/animal

Query :: // Dose required to obtain 50% inhibition of Thymus weight lookup, key: CCCC1O[C@@H]2C[C@H]3[C@@H]4CCC5=CC(=O)C=C[C@]5(C)[C@@]4(F)[C@@H](O)C[C@]3(C)[C@]2(C(=O)CO)O1 (single isomer, unassigned) [3 B]
Result :: 17 γ/animal

Query :: Using the record for CCCC1OC2CC3C4CCC5=CC(=O)C=CC5(C)C4(F)C(O)CC3(C)C2(C(=O)COC(=O)c2cccnc2)O1 (mixture of isomers) [21 A+B] , report its Dose required to obtain 50% inhibition of Thymus weight.
Result :: 35 γ/animal

Query :: What Dose required to obtain 50% inhibition of Thymus weight value was documented for this compound, CCCC1O[C@@H]2C[C@H]3[C@@H]4CCC5=CC(=O)C=C[C@]5(C)[C@@]4(F)[C@@H](O)C[C@]3(C)[C@]2(C(=O)COC(=O)c2cccnc2)O1 (single isomer, unassigned) [21 A] ?
Result :: 70 γ/animal

Query :: Suppose we examine the compound CCCC1O[C@@H]2C[C@H]3[C@@H]4C[C@H](F)C5=CC(=O)C=C[C@]5(C)[C@@]4(F)[C@@H](O)C[C@]3(C)[C@]2(C(=O)CO)O1 (single isomer, unassigned) [8 A] ; what Dose required to obtain 50% inhibition of Thymus weight value has been reported?
Result :: 13 γ/animal
